Measured on: aPKCι kinase domain (residues 248–596), fully primed (human), P41743
Sequence (P41743 248-596): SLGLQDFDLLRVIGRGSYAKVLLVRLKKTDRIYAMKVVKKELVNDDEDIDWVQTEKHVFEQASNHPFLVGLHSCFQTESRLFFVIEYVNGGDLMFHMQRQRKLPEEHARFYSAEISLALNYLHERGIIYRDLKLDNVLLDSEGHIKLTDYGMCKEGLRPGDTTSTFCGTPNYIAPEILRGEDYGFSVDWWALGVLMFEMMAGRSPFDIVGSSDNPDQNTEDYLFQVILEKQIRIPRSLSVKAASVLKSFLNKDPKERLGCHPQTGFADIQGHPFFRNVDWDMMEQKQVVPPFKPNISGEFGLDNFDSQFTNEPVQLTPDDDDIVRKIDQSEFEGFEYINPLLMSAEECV
Protocol text: fluorescence polarisation; fluorescence anisotropy; Llgl1 P-site peptide and aPKCι kinase domain (2P, pT412 and pT564); apparent Kd
Measurement kind: pKd
Worth noting: pKd values are minus log10 of concentrations stated in mol/L.

Q. Name the recorded pKd for LAMEGPLSRVKSLKKSLRQSFRRIRKSRV (modifications not checked) [Llgl1 P-site peptide] .
A. 7.32
